Biological target: calpain-I (Homo sapiens, UniProt P07384)
Construct: calpain-I—isolated from human erythrocytes
Sequence (P07384 whole entry): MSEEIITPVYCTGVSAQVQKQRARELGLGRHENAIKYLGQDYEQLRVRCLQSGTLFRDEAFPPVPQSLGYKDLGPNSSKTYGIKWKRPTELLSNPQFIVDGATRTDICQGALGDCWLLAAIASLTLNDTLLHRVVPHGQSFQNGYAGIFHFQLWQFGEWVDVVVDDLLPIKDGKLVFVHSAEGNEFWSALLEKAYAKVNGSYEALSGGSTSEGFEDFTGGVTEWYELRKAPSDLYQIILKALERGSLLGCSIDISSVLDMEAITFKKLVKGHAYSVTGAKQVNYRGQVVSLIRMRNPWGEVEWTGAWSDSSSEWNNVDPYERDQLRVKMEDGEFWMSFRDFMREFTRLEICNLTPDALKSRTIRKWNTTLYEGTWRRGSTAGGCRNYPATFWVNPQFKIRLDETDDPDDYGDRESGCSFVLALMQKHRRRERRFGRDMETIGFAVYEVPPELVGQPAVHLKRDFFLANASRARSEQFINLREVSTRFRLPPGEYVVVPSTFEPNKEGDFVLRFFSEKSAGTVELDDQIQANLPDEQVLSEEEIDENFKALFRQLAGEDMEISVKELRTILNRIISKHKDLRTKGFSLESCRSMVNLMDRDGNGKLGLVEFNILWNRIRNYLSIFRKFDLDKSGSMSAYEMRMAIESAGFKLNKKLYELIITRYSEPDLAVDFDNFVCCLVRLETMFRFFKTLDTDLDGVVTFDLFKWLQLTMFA
Sequence (P04632 whole entry partner): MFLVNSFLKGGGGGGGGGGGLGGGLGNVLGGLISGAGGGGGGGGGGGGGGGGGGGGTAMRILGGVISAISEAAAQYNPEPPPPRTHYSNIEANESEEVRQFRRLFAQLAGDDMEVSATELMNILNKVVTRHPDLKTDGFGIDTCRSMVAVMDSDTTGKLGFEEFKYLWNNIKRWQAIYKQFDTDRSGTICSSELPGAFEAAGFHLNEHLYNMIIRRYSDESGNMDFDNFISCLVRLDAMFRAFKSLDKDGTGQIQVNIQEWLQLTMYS
Experiment: Calpain I kinetic fluorescence enzyme inhibition assay
Conditions: calpain-I from human erythrocytes, Suc-Leu-Tyr-AMC, pH 7.3; apparent Ki from IC50 by Cheng-Prussoff
Parameter: Ki. Scope: all listed entries.

compound: O=C(NCc1nc2ccccc2[nH]1)C(=O)C(Cc1ccccc1)NC(=O)c1cccnc1-n1ccc(-c2ccccc2)n1 (stereo not drawn) [Example 20]
study.target: calpain-I (Homo sapiens, UniProt P07384)
Ki: 800 to 1000 nM
--
compound: O=C(NC1CC1)C(=O)C(Cc1cccc(F)c1)NC(=O)c1cccnc1-n1ccc(-c2ccccc2)n1 (stereo not drawn) [Example 14]
study.target: calpain-I (Homo sapiens, UniProt P07384)
Ki: 250 to 400 nM
--
compound: O=C(NC1CC1)C(=O)C(Cc1ccccc1)NC(=O)[C@H]1CCC(=O)N1Cc1ccccc1F (mixture of isomers) [Example 30]
study.target: calpain-I (Homo sapiens, UniProt P07384)
Ki: 400 to 800 nM
--
compound: O=C(NC1CC1)C(=O)C(Cc1ccccc1)NC(=O)c1cccnc1-n1ccc(-c2cccc(N3CCOCC3)c2)n1 (stereo not drawn) [Example 26]
study.target: calpain-I (Homo sapiens, UniProt P07384)
Ki: 400 to 800 nM
--
compound: O=C(NC1CC1)C(=O)C(Cc1ccc(OCCN2CCOCC2)cc1)NC(=O)c1cccnc1-n1ccc(-c2ccccc2)n1 (stereo not drawn) [Example 23]
study.target: calpain-I (Homo sapiens, UniProt P07384)
Ki: 400 to 800 nM
--
compound: COC(=O)CNC(=O)C(=O)C(Cc1ccccc1)NC(=O)c1cccnc1-n1ccc(-c2ccccc2)n1 (stereo not drawn) [Example 21]
study.target: calpain-I (Homo sapiens, UniProt P07384)
Ki: < 250 nM
--
compound: O=C(NCCCc1ccccn1)C(=O)C(Cc1ccccc1)NC(=O)c1cccnc1-n1ccc(-c2ccc(F)cc2)n1 (stereo not drawn) [Example 4]
study.target: calpain-I (Homo sapiens, UniProt P07384)
Ki: < 250 nM
--
compound: CCCNC(=O)C(=O)C(Cc1ccccc1)NC(=O)c1cccnc1-n1ccc(-c2ccccc2)n1 (stereo not drawn) [Example 11]
study.target: calpain-I (Homo sapiens, UniProt P07384)
Ki: 400 to 800 nM
--
compound: O=C(NCc1nc2ccccc2o1)C(=O)C(Cc1ccccc1)NC(=O)c1cccnc1-n1ccc(-c2ccccc2)n1 (stereo not drawn) [Example 15]
study.target: calpain-I (Homo sapiens, UniProt P07384)
Ki: < 250 nM
--
compound: COc1ccc(CC(NC(=O)c2cccnc2-n2ccc(-c3ccccc3)n2)C(=O)C(=O)NC2CC2)cc1 (stereo not drawn) [Example 22]
study.target: calpain-I (Homo sapiens, UniProt P07384)
Ki: 250 to 400 nM
--
compound: O=C(NCCc1ccccn1)C(=O)C(Cc1ccccc1)NC(=O)c1cccnc1-n1ccc(-c2ccc(F)cc2)n1 (stereo not drawn) [Example 3]
study.target: calpain-I (Homo sapiens, UniProt P07384)
Ki: 250 to 400 nM
--
compound: O=C(NC1CC1)C(=O)C(Cc1ccc(F)cc1)NC(=O)c1cccnc1-n1ccc(-c2ccccc2)n1 (stereo not drawn) [Example 13]
study.target: calpain-I (Homo sapiens, UniProt P07384)
Ki: 400 to 800 nM
